B1: LYSMD4 (parent)
chain: LLQRELAQEDSLNKLALQYGCKVA

variants of: B1; assay: protein stability index of a GFP-peptide fusion (GPS, HEK-293T) (PSI 1-6); higher = more stable; conditions: c terminus: a fixed tail appended;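 also: lentivirally expressed fusions sorted by FACS into six bins by GFP to DsRed ratio, PSI derived from sequencing read proportions per bin multiplied by bin number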
Kind request: treat 2 as inclusive, so protein stability index at 2 or higher is satisfied, anything lower is not satisfied.

>  <CHANGE>
L1I

>  <CLASS>
satisfied

$$$$
>  <CHANGE>
S11R

>  <CLASS>
satisfied

$$$$
>  <CHANGE>
E9N

>  <CLASS>
satisfied

$$$$

[ask] Dear colleague, could you confirm whether K14N has protein stability index at or above 2?
[reply] not satisfied

[ask] Dear colleague, could you confirm whether S11T has protein stability index at or above 2?
[reply] not satisfied

[ask] Dear colleague, could you confirm whether L2A has protein stability index at or above 2?
[reply] satisfied

[ask] Dear colleague, could you confirm whether Q8H has protein stability index at or above 2?
[reply] not satisfied

[ask] Dear colleague, could you confirm whether Q8I has protein stability index at or above 2?
[reply] not satisfied

[ask] Dear colleague, could you confirm whether C21I has protein stability index at or above 2?
[reply] not satisfied

[ask] Dear colleague, could you confirm whether K14S has protein stability index at or above 2?
[reply] not satisfied
